Assay: protease stability score; higher = more stable; yeast display proteolysis, trypsin and chymotrypsin;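 also: relative to predicted unfolded state with 0 unfolded-like and 1 meaning tenfold more protease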
Measured quantity: protease stability score
No unit in the answer, only the number.

GET /values?readout=protease stability score&item= DEEEEDAHRLMHNVVHALRTGDWEEFSRLLDPNVMVIIGDKLFIGRETVLEMIKRMLDDWGVTRIHLHIHSKHVQGNKLHVDSQIDVNGRTTRVHIDATKIDGRWLLKRIEIK
2.14

Need protease stability score, item DEDEHLVRYLVEELIKFEQTGNEDEWNRLADPNVRIEINGVENHGREQYRKAFYEWRIHSLTVHHIRIDVQGEKALSIVDTETDGEYNGRQTRVKTNLIIHTKKVDGRWLVHSLVIKTE
1.25

Item SEDEENIKRHLEIWFTALKTGDEDTSRRMIDPNARFQVGDKHEHGMDSLVRELLREWKERGIELKSIRTTEIHIQGDKIFLNSRRDVLVNGVRIILETEIRFLKVDGRWLITEVSER has what recorded protease stability score?
1.22

Name the reported protease stability score value associated with the sequence NEDEEWIHKFWETLRKNIETGNEEEIEKLFDPNTRVEIGDKIIHGRRFIEHLKERADHVEEVHFQHKHIEIQGDKVQVHGELDHDIRIGDKRHRLRLDIIIILKKYNGRWHVHSFIIT
1.2

What measured protease stability score goes with SEEEEVIDEAIHILEKHMQTGDWRVLRELADPNMRVHVNGRDLHGREQYIRWIEFLLKRVPNLKLDHFVLDHQHVVNGVAHLEGRLTYTINGVIHKTRTHFHIFKFDGQWRLESQSER ?
0.951

Endpoint output: protease stability score of DDHKKRVDHLLRELLHHWRTGDFEHIYKLADPHVRFHIQIGEFHHEAVGWDEVVRLIQTHLDQLGVDHLRIRRVKSQGDKLYIETESYIGDFRIEFHIIWIVVNGRLKEQRMHIHEG . Value?
1.45

Data request, read-out protease stability score, for DEHEEDWRHVLKTLEDVMRTGDPHLFSHLADPHVRLRIDGRDHIGMELMWEILHKYKNITIEIEHSRVQGDKIEIRGTLDVDGRRYHVTIFADKINGKWIHREMEVT
1.18

Any idea what its protease stability score is? The sequence is TEQEHDMERLIEILIHSWRTGNEDELRRQIDPNARIDIGDKHFHGREFAIKHLSELRIKDFKLQHLDVQGDKVNVEGHLEGEINGRDDRYRYWIFVSKVNGQWFVERFHIV
1.5

What measured protease stability score goes with DSHEETNKFFFELTTHALETGDFDFLKKLADPHVRLNIDGRDTIGMDFLLRLWRELGFKHQHLKDMKIYGNWTYLDMHLHFNGREHDIHLNFKIFNGQMESIDVHIR ?
1.32

Find the recorded protease stability score belonging to NEDEEIWRKAHEFMIHAMKTGDEDVEKSLFDPHTRFEQGDKELHGREMIEHLLRLLRERFPNVQIRRMEIQHWDHFNGVLIEFGELRVDVNGRTVSLRIIIYAEKINGQWHVKRVEFD and report it.
1.52

Look up protease stability score: DELEEFLHTIMELVVRNMFTGDEDSFNNLADPDVKSHINGKNAVGREEIIRVWKEWVEEIRTTHYDIHDFTIIGDKAHSDTRVDGTFNGVRDTIDTRVIVLVVDGRLKSLEIRMH
0.986

---

Assay: protease stability score; higher = more stable; yeast display proteolysis, trypsin and chymotrypsin;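 also: relative to predicted unfolded state with 0 unfolded-like and 1 meaning tenfold more protease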
Measured quantity: protease stability score
Field format: numeric only.

I have this sequence here, DEEHQSLRHIAEILLESWETGDFERVWKFADPHTRVDFNGREKHGMHHVHEMFHILGIDHIELRHMEVINGRINSDGHVEVNGQRHRMHLTIFVFDGRLTEVRFDYE , and I need its recorded protease stability score.
2

What measured protease stability score goes with DEDERFAEIAIRLMIEIIKTGDEREEDKLIDPHARLIVGDWLIHGRDELVRYLTHLRIEHLEIKTWEVVNGRVKLTTRIHLRINGRHHETDQVNIIEKVNGRWYMKLIEFK ?
1.19

Item HEDEDILREALKTLRHSIQTGDEDLLRELMDPNVRLETEHERLHGWEYVSKFMMDLYKRYDHMEYTVHDYKVYGDFLRVDVQLDVKQGEKDDVISTHMLALKFDGKWHIKKIIIE has what recorded protease stability score?
1.56

Which protease stability score is reported for this sequence? DELQRDSEEAFELVLRVLRTGDEETMSRLADPHTRINVHQGDKIVEFHGREDFERFMHDLLRKFPNMRIDAERVHTFNGQVVINHRLHVNGQERDLHIFSLKIDGRWHLKHVELKLK
1.73

Entry DERDEYLHEWTRLLIELFETGNFEFLVEMMDPNVQIDIGDKHFIGWELAVHFLEEFLRQFKNARWEITRFRRYDGRIEMDTIMRINGREIKVKIIVIVIDGRVKSRHEEYR has what protease stability score?
0.595

For the sequence DKEERYLEIAVNVIRHQLETGNEEDLLRNIDPDTRLFIDGRLFHGWETAHYLLRKVKNARIEIRSVHLIGDKIHMDTELIVNGVLRETEITARKVDGQWTWHHIRIE , what protease stability score is on record?
1.39

---

Assay: protease stability score; higher = more stable; yeast display proteolysis, trypsin and chymotrypsin;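 also: relative to predicted unfolded state with 0 unfolded-like and 1 meaning tenfold more protease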
Measured quantity: protease stability score
No unit in the answer, please; the number alone is enough.

Record request: protease stability score value, item DEDTDWIREMHRRHTEALRTGDEDTLRDLMDPHVRIFQGDKIHIGMHDLAKFLKEWRIKEIRVDIKHIESQGDKLRFSGDVEVHFEFNGKEVDLKLKALIVIVKINGKWVFKEIHHI
0.862

Name the recorded protease stability score for DEEDELAEHLLHIIIDALETGDWKFFADYFDPHTRLEIEIGDKRFQLHGRESIRKRWEEIWRELGVKHREIKSTRLIGDKIEMDVTINVGDKRIRHHIVIVIVNGRMKKEMVIVR .
1.19

What protease stability score value was documented for this sequence, DEHQEEIKEMFRRMIHALETGDEDFFNHLADPHVLFHEHFNGRSFELHGREEFSKWLQSHREEIRLRNVHYHDIRIYNGVVHFDGRIVWHQGDKTIDRKVHWRTFVIDGRAKKVEIHVK ?
0.621

What value of protease stability score has been reported for the following sequence? SEHDERRRRVLELWFHALHTGDEEKLQELMDPDARLDINGVKLHGRDKLIEFFREWRFKHVDIHDMDEFNGVVNIKIEHVEIYNGQHRRVETRIFLIKINGRWHFRHIELH
1.66

Which protease stability score value belongs to NEMHDFAKLAIELLLKSLKTGDEHTLEHLLDPNVRMNIDGRRWHGRENWVKRVHDLGITTRDFKLTDVKNQGNKVHIDGHAVEEVNGQRIERRVEIISVKIDGKWEIEEIRIE ?
1.02

Recorded protease stability score for DEEDRQAEHIARLVIEELLTGDEESFSHLVDPDTRSEFDGKEFIGREWFNKWLRRILEEIRFHINPTEIRYQGDKAIVHGRLHLHYNGQDVHITVHYKLIVINGRHKRIKEERS , please?
1.3

# protease stability score lookup, item DEFHHLLELFLKLLAEQSRTGDEDSFERLFDPNVRVDINGRELHGWEAYQETRDRLGIERFDLRRIHSHTVNVVNGQVHMDMRTDGVIGDKRIDRTIHIRTTKINGRWFFTHLEWE
0.578

Recorded protease stability score for SEDEEDFERAMKLLMHDIRTGNEESLNRLFDPNVKININGKELWGREKWIEFLERVDHLDVHDMKIRHLDIQGEKVRAEVHIDRRIKIGDKETRVKVDIRMIAVKVNGRWLLREISVE , please?
2.1

Entry DEEKEYAIRILREFTKYWETGDFERMKELFDPNARLEIGDKRAVGRDKVLEVLLRELHELRFKHFELREEDVIGEKKHSELIVHMEIDGVWHRRNIRVEIVVIDGKIHRMRFEQH has what protease stability score?
2.37

# lookup: protease stability score of DEEHEIIRKMFEIVKDMFKTGDEEITERLLDPNARIDIDGRDIVGRESVLWLFSQFKNLRHRDDRIDYQGNFVIVRGKLDINGRRVEIEIVAAKVDGRWILHSIKMQ
1.43

Need protease stability score of SEIHRDVEEFMKRFDRDLETGDEKILEKLVDPDVKTIVNGKIFHGRETFIKLMLTIFKEMRNEHVELQSLEVQGNKAHAETRVRLTIGDWTFYLRTELHLEKYDGRWRFHSVTIE , thanks.
1.93

Report protease stability score for DERERIAEEILRRIAKLMETGDENEMEHLMDPNVRLVFNGVRLHGMEDWEREMRRFDHIKIHTNEIQHIRLQGEKVDNDVRVDLLYHQGDKSWKIDTRTHYHFQKVNGKWIVREIIIE please.
1.39

Value lookup for protease stability score; key = DEDRKYVEELMRKIWEAMHTGDEKFFNNLADPHYRLRIGDKNFIGRDEFHKFLRHIRMTVEDFQERDSDEIDGVIIIIGETTYIFIVNGQEKHHVVEVEIIIIKIDGRWLLHSVNIH
1.27

// returns reported protease stability score for input SEEEEWAHELMRLLIEFNETGDEHELHNLIDPNVRIVIGEYTIIGREIAIEWTRQARIKRVHIEDYRFQGDKLHVDSRSNGKYGDKEDTLKVEIIVEKINGKWVVREVRVK
2.06

Sample HEEQELLEEFVEKLRQTLETGDEHFTRELLDPNVRYVQGDKEWHGRDLAAELNKKLGIKVVDIKHVRYWNGRLDLRGEDQVGDKTTHTILHVDKFNGRWFYKEVIFV — what was its protease stability score?
0.721

Looking for the measured protease stability score of DEEEKIVEDAIRVWRRVLMTGDEEASRDLMDPNYKLVVGDKEYHGREEIVTYFKILVEHIRIDDFDVRHIRVQGDKIDINSEINGTIDGRHKRLEVTIHAHKFDGRWHLTEIIIH , can you help?
0.811

Please report the recorded protease stability score for SEEDEEAERWVRMLEHLIRTGDEEILNSFADPNVRYIQGDKHLHGRETVYEYLEELWRKLGVDHMNIKDRHLRVFNGRVHLQLFVHFTVNGRSFDSILRFDTIKIDGQWHMHRIVVEII .
1.31

I would be grateful if you could share the reported protease stability score for DELKKMLKEMEEFHTDLLETGDFEKIIRNVDPHVRIDVNGQEHHGWHEAVEFIREFIERFKNVKIIIEHVEIQGDKLILHMEFRQGEFHSRLIVYSLKVNGRWILKDMEIR .
1.67

GET /values?readout=protease stability score&item= DETERLAEKWYRHWLHLILTGDWELLEKQADPHYKFHVGDKVFIGRELASEWLRHLYEHIRIDDMKITHLDLQGDKINNDGRMRVTQGEKHKEVSVDLHMIVVNGKMHEIRIRTH
1.45

Endpoint output: protease stability score of SEDETELKRWVERFERSMHTGDEEDLRQMADPNTRFEVGDKEIHGWDLWSKIHRKEREKLGVDNVTTNIKRLEMYGDKLRLESELIFNGQRLEVILIAEKIDGKWVVTSFHIH . Value?
0.129

Fill in the blank: the reported protease stability score of SEEEHEFKKFLEHFLHRLTTGDEDELRRLADPHVRVLINGRHIVGMDEVTKVLRHLREIIEELRIDDIDLQGDKIRMDTRTRIRFIIGDWETKIETRTRIFIWKFNGRWIMEHIERD is ____.
0.811

Given the entry DEEEKKFHELYKHLVKSLITGDEHELYRLADPNMRFSVGEFHYHGRENVLERLKEFIDRFRHATIRTKHMDRQGEYIHLTLKIHQGDKTHDMEIIAWKFDGRWFLHMIYIE , report its measured protease stability score.
0.959
